- Test Target: Microsomal triglyceride transfer protein large subunit (Homo sapiens, UniProt P55157)
- Sequence (P55157 whole entry): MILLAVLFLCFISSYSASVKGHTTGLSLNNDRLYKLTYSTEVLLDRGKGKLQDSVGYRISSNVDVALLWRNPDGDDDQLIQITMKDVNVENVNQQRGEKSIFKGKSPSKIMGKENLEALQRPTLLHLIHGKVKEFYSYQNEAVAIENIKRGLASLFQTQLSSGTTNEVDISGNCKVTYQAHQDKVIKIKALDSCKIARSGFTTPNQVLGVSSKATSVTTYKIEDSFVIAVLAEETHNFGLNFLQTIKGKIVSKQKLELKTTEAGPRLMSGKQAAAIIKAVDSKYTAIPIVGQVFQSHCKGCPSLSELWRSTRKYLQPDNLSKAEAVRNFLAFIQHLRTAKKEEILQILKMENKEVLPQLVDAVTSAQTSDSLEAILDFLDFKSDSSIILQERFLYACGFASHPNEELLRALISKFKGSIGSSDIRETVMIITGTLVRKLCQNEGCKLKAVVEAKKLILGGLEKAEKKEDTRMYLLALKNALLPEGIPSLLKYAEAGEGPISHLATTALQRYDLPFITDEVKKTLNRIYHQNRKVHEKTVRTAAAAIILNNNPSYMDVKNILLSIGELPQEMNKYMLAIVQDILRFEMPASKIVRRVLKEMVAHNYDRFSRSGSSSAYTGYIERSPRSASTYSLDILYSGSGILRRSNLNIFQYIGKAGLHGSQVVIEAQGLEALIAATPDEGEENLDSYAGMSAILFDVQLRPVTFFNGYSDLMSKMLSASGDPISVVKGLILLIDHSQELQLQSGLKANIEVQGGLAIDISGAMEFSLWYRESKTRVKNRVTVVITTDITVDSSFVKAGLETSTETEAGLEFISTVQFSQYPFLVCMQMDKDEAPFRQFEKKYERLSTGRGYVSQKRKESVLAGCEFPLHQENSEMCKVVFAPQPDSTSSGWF
- Assay Comment: In vitro inhibitory activity against MTP using MTP transfer assay
Readout Kind: pIC50
// field semantics: pIC50 = negative decimal log of concentration (mol/L)

Query block: Entry `COC(=O)N[C@H]1Cc2ccc(NC(=O)c3cc(C)ccc3-c3ccc(C(F)(F)F)cc3)cc2C1` : reported pIC50 = ?
Result block: 6.77

Query block: Entry CC(=O)NC1Cc2ccc(NC(=O)c3ccccc3-c3ccc(C(F)(F)F)cc3)cc2C1 (stereo not given) : reported pIC50 = ?
Result block: 7.10

Query block: Entry `Cc1cccc(C(=O)Nc2ccc3c(c2)C[C@H](NCc2ccccn2)C3)c1-c1ccc(C(F)(F)F)cc1` : reported pIC50 = ?
Result block: 6.39

Query block: Entry COC(=O)NCCC1Cc2ccc(NC(=O)c3cccc(C)c3-c3ccc(C(F)(F)F)cc3)cc2C1 (stereo not given) : reported pIC50 = ?
Result block: 7.15

Query block: Entry Cc1cccc(C(=O)Nc2ccc3c(c2)CC(NS(=O)(=O)c2cccs2)C3)c1-c1ccc(Cl)cc1 (stereo not given) : reported pIC50 = ?
Result block: 6.92
